test system: E coli carrying specific resistance determinants; assay: MIC by broth microdilution, E coli carrying specific resistance determinants; assay type: cell-based; details: Escherichia coli, read-out: MIC AAC(6′)
ASSAY_READOUT: MIC

Some solved entries appear below for comparison.
Fill in the blank: the reported MIC of NC[C@@H]1O[C@H](O[C@@H]2C(O)[C@H](O[C@@H]3C(O)[C@H](N)CC(N)[C@H]3O[C@H]3OC4C(O)CCCO[C@H]4[C@H](O)C3N)O[C@@H]2CO)C(N)C(O)[C@@H]1O (some centres unmarked) [DC-196] is ____.
4 µg/mL

Further, for NCC1O[C@H](O[C@@H]2C(O)[C@H](O[C@@H]3C(O)[C@H](N)CC(N)[C@H]3O[C@H]3OC4C(O)CO[C@H]4[C@H](O)C3N)O[C@@H]2CO)C(N)[C@H](O)[C@@H]1O (some centres unmarked) [DC-204] ?
16 µg/mL

Further, for CC1CC(O)C2O[C@H](O[C@@H]3C(N)C[C@@H](N)C(O)[C@H]3O[C@@H]3O[C@H](CO)[C@H](O[C@H]4O[C@@H](CN)[C@@H](O)C(O)C4N)C3O)C(N)[C@@H](O)[C@@H]2O1 (some centres unmarked) [Compound 125] ?
1 to 2 µg/mL

Further, for NC[C@@H]1O[C@H](O[C@H]2[C@@H](O)[C@H](O[C@@H]3[C@@H](O)[C@H](N)C[C@H](N)[C@H]3O[C@H]3O[C@H](CO)[C@@H](O)[C@H](O)[C@H]3N)O[C@@H]2CO)[C@H](N)[C@@H](O)[C@@H]1O [paromomycin, reference compound] ?
2 to 4 µg/mL

Field: next compound
Fill in the blank: the reported MIC of CC1CC(N)C2O[C@H](O[C@@H]3C(N)C[C@@H](N)C(O)[C@H]3O[C@@H]3O[C@H](CO)[C@H](O[C@H]4O[C@@H](CN)[C@@H](O)C(O)C4N)C3O)C(N)[C@@H](O)[C@@H]2O1 (some centres unmarked) [Compound 139] is ____.
1 µg/mL

* * *

System: wild type bacterial ribosomes
Test: in-vitro translation assay, bacterial ribosomes
Type: biochemical
Settings: bacterial ribosome; Table 3 (Example 1); read-out: IC50 Bac
From the text: The antiribosomal activity of these compounds was investigated with cell-free translation assays using both wild type bacterial ribosomes and hybrid ribosomes carrying eukaryotic decoding A sites enabling the prediction of selectivity.
Structures can show the parent of a compound that is named as a salt.
ASSAY_READOUT: pIC50
Friendly reminder that pIC50 comes from taking -log10 of the concentration in mol/L.

Some solved entries appear below for comparison.
Fill in the blank: the reported pIC50 of NCC1OC(OC2C(CNC=O)OC(OC3C(O)C(N)CC(N)C3OC3OC(CO)C(O)CC3N)C2O)C(N)C(O)C1O (stereo not shown) is ____.
6.92

Further, for NC[C@@H]1O[C@H](O[C@H]2[C@@H](O)[C@H](O[C@@H]3[C@@H](O)[C@H](N)C[C@H](N)[C@H]3O[C@H]3O[C@H](CN)[C@@H](O)[C@H](O)[C@H]3N)O[C@@H]2CO)[C@H](N)[C@@H](O)[C@@H]1O [neomycin, Neomycin B, reference compound] ?
7.40

Further, for NC[C@H]1O[C@H](O[C@H]2[C@H](O[C@@H]3O[C@H](CO)[C@@H](O)[C@H]3O)[C@@H](O)[C@H](N)C[C@@H]2N)[C@H](N)[C@@H](O)[C@@H]1O [Ribostamycin, ribostamycin, reference compound] ?
7.05

Further, for NC[C@@H]1O[C@H](O[C@H]2[C@@H](O)[C@H](O[C@@H]3[C@@H](O)[C@H](N)C[C@H](N)[C@H]3O[C@H]3O[C@H](CN)[C@@H](O)C[C@H]3N)O[C@@H]2CO)[C@H](N)[C@@H](O)[C@@H]1O ?
7.40

Further, for NC[C@@H]1O[C@H](O[C@H]2[C@@H](O)[C@H](O[C@@H]3[C@@H](O)[C@H](N)C[C@H](N)[C@H]3O[C@H]3O[C@H](CO)[C@@H](O)C[C@H]3N)O[C@@H]2CO)[C@H](N)[C@@H](O)[C@@H]1O [Lividomycin B, lividomycin B, reference compound] ?
7.40

Further, for NC[C@H]1O[C@H](O[C@H]2[C@H](O[C@@H]3O[C@H](CO)[C@@H](O)[C@H]3O)[C@@H](O)[C@H](N)C[C@@H]2N)[C@H](N)C[C@@H]1O ?
7.00

Field: next compound
Fill in the blank: the reported pIC50 of NC[C@@H]1O[C@H](O[C@@H]2C(O)[C@H](O[C@@H]3C(O)[C@H](N)CC(N)[C@H]3O[C@H]3OC(CO)[C@@H](O)[C@H](O)C3N)O[C@@H]2CNC=O)C(N)C(O)[C@@H]1O (stereo partly shown) [Compound 137, acetate salt] is ____.
7.40

* * *

system: mitochondrial ribosome (human chimeric); type: biochemical; settings: Table 3 (Example 3)
Counter-ions that a name gives are not always drawn.
Please map values of Selectivity for Binding to the Bacterial Ribosome over the Mitochondrial Ribosome to classes as shown: I: < 500; II: ≥ 500 and < 1000; III: ≥ 1000

Dear colleague, I would appreciate it if you could identify the bin for NCC1OC(OC2C(CO)OC(OC3C(O)C(N)CC(N)C3OC3OC(CN)C(O)C(O)C3O)C2O)C(N)C(O)C1O (stereo not shown) and reply at your convenience.
III

Further, for NCC1OC(OC2C(N)CC(N)C(O)C2OC2OC(CO)C(OC3OC(CN)C(O)C(O)C3N)C2O)CC(O)C1O (stereo not shown) [Compound 173, 2′-Deamino-neomycin acetate salt] ?
II

Further, for CNC1C(OC2C(N)CC(N)C(O)C2OC2OC(CO)C(OC3OC(CN)C(O)C(O)C3N)C2O)OC(CO)C(O)C1O (stereo not shown) [Compound 115, 2′-N-Methyl-paromomycin acetate salt] ?
III

Further, for CC(=O)NC1C(OC2C(N)CC(N)C(O)C2OC2OC(CO)C(OC3OC(CN)C(O)C(O)C3N)C2O)OC(CN)C(O)C1O (stereo not shown) ?
I

Further, for CC(=O)O.NCC(=O)NC1C(OC2C(N)CC(N)C(O)C2OC2OC(CO)C(OC3OC(CN)C(O)C(O)C3N)C2O)OC(CN)C(O)C1O (stereo not shown) ?
I

Further, for CCCNC1C(OC2C(N)CC(N)C(O)C2OC2OC(CO)C(OC3OC(CN)C(O)C(O)C3N)C2O)OC(CO)C(O)C1O (stereo not shown) [Compound 128, 2′-N-Propyl-paromomycin acetate salt] ?
III

Further, for NCC1OC(OC2C(CO)OC(OC3C(O)C(N)CC(N)C3OC3OC(CN)C(O)C(O)C3NC=O)C2O)C(N)C(O)C1O (stereo not shown) ?
I

Further, for CCNC1C(OC2C(N)CC(N)C(O)C2OC2OC(CO)C(OC3OC(CN)C(O)C(O)C3N)C2O)OC(CN)C(O)C1O (stereo not shown) [Compound 172, 2′-N-Ethyl-neomycin acetate salt] ?
II

Further, for CNC1C(OC2C(N)CC(N)C(O)C2OC2OC(CO)C(OC3OC(CN)C(O)C(O)C3N)C2O)OC(CN)C(O)C1O (stereo not shown) [Compound 171, 2′-N-Methyl-neomycin acetate salt] ?
I

Attention now shifts to the item below.
Dear colleague, I would appreciate it if you could identify the bin for CCNC1C(OC2C(N)CC(N)C(O)C2OC2OC(CO)C(OC3OC(CN)C(O)C(O)C3N)C2O)OC(CO)C(O)C1O (stereo not shown) and reply at your convenience.
III

* * *

system: E coli wild type; assay: MIC by broth microdilution, wild type E coli; type: cell-based; settings: Escherichia coli, clinical isolate AG001; Table 1 (Example 3); read-out: MIC E coli AG001
Counter-ions that a name gives are not always drawn.
Items are presented alongside their recorded MIC.
Give just the numeric value; µg/mL need not be written.

Kindly state the measured MIC obtained for CNC1C(OC2C(N)CC(N)C(O)C2OC2OC(CO)C(OC3OC(CN)C(O)C(O)C3N)C2O)OC(CO)C(O)C1O (stereo not drawn) [Compound 115, 2′-N-Methyl-paromomycin acetate salt] with E coli wild type.
16

Further, for CNC1C(OC2C(N)CC(N)C(O)C2OC2OC(CO)C(OC3OC(CN)C(O)C(O)C3N)C2O)OC(CN)C(O)C1O (stereo not drawn) [Compound 171, 2′-N-Methyl-neomycin acetate salt] ?
1

Further, for CCCNC1C(OC2C(N)CC(N)C(O)C2OC2OC(CO)C(OC3OC(CN)C(O)C(O)C3N)C2O)OC(CO)C(O)C1O (stereo not drawn) [Compound 128, 2′-N-Propyl-paromomycin acetate salt] ?
16

Further, for NCC1OC(OC2C(N)CC(N)C(O)C2OC2OC(CO)C(OC3OC(CN)C(O)C(O)C3N)C2O)CC(O)C1O (stereo not drawn) [Compound 173, 2′-Deamino-neomycin acetate salt] ?
2

Further, for CCNC1C(OC2C(N)CC(N)C(O)C2OC2OC(CO)C(OC3OC(CN)C(O)C(O)C3N)C2O)OC(CO)C(O)C1O (stereo not drawn) [Compound 127] ?
16

This collection of values is drawn from patent US11466044B2.
